# method: yeast display, Sf9 membrane polyspecificity reagent, FACS + sequencing; frameworks hold sequencing errors

seq	polyreactivity (PSR sort gate)
QVQLVESGGGLVQAGGSLRLSCAASGLTFDWYTMGWYRQAPGKERELVATINSGGSTDYADSVKGRFTISRDNAKNTVYLQMNSLKPEDTAVYYCNAEYGYSGVGDDYWGQGTQVTVSS	low polyreactivity
QVQLVESGGGLVQAGGSLRLSCAASGSICISYAMGWYRPAPGKERELVAAINYSGGSTYYADSVKGRFTISRDNAKNTVYLQMNSLKPDDTAVYYCAKRSTYRYYGYKLRDYWGQGTQVTVSS	low polyreactivity

---

# method: yeast display, Sf9 membrane polyspecificity reagent, FACS + sequencing; frameworks hold sequencing errors
assay endpoint: polyreactivity (PSR sort gate)

seq	assay endpoint	observed value
QVQLVESGGGLVQAGGSLRLSCAASGITFNYYAMGWYRQAPGKERELVAVISSSGGRTYYADSVKGRFTISRDNAKNTVYFQMNSLKPEDTAVYYCGAGCSVAFYYWGQGTQVTVSS	polyreactivity (PSR sort gate)	high polyreactivity
QVQLVESGGGLVQAGGSLRLSCAASGFTFRDYAMGWYRPAPGKERELVAAITRSGGRTYYADSVKGRFTISRDNAKNTVYLQMNSLKPEDTAVYYCAAQLPYYGYDYWGQGTQVTVSS	polyreactivity (PSR sort gate)	low polyreactivity
QVQLVESGGGLVQAGGSLRLSCAASGRIFKDTAMGWYRQAPGKDRELVAGITSIGDNTYYADSVKGRFTISRDNAKNTVYLQMHSLKPEDSAVYDCNALYPYVNGTVPRTTGEYDYWGQGTQVTVSS	polyreactivity (PSR sort gate)	low polyreactivity
QVQLVESGGGLVHAGGSLRLSCAASGSIFVGYAMGWYRQAPGKERELVARISRSGTSTYYADSVKGRFTISRDNAKNTVYLQMNSLKPEDTAVYYCNATVSRYSGYQRGHYWRYDYWGQGTQVTVSS	polyreactivity (PSR sort gate)	high polyreactivity
QFQIVESGGGLVQAGGSLRLSCAASGSIFTQYAMGWYRQAPGKERELVAAITSGGSTYADSVKGRFTISRDNAMNTVYLQMKSLKPEDTAVYYCATPYSYRGVTFNYWGQGTQVTVSS	polyreactivity (PSR sort gate)	low polyreactivity
QVQLVESGGGLVQAGGSLRLSSAATGRTFPSNAMGWYRQAPGKERELVAAISVSSGRTYYADSVKGRFTISRDNAKNTVYLLMNSLKPEDTAVYYCAALWARYPYLFGFDYWGQGTQVTVSS	polyreactivity (PSR sort gate)	high polyreactivity
QVQLVESGRGLVQAGGSLRLSCAASGRIFGRNAMGWYRQAPGKESELVASITSGGGTNYADSVKGRFTISRDNAKNTVYLQMNSLKPDDTAVYDCAKQFYRPGQQSRYDYWGQGMQVTVSS	polyreactivity (PSR sort gate)	low polyreactivity

---

# method: yeast display, Sf9 membrane polyspecificity reagent, FACS + sequencing; frameworks hold sequencing errors

seq	polyreactivity (PSR sort gate)
QVQLVESGGGLVQAGGSLRLSCAASGFIFGYYAMGWYRPAPGNERELVAAIDWSDGSTYYADSVKGRFTISRDNAKNTVYLQMNSLKPEDTAVYYSAVDTYSQQAGDYEYWGQGTQVTVSS	low polyreactivity
QVQLVESGGGLVQAGGSLRLSCAASGRIFNRYAMGWYRQAPGKERELVAAITSGGSTYYADSVKGRFTISRDNAKNTVYLPMNSLKREDTAFYYCAALPRSNSYGYCGQGTQVTVSS	high polyreactivity
QVQLVESGGGLVQAGGSLRLSCAASGRIFSRYAMGWYRQAPGKERELVATITISGGSTYYADSVKGRFTISRDNAKNTVYLQMNSLKPEDTAVYYCAAETTASYYKRTDDYDYWGQGTQVTVSS	low polyreactivity
QVQLVESGGGLVQAGGSLRLSCAASGRIFRGYAMGWYRQAPGKERELVAAISGSGGSTYYADSVKGRFTISRDNAKNTVYLQMNSLKPEDTAVYYCAADQQSTGDWAGDYWGQGTQVTVSS	low polyreactivity
QVQLVESGGGLVQAGGSLRLSCAASGITFDTYVMGWYRQAPGKERELVAAISNSDGSTYYADSVKGRFTISRDNAKNTVYLQMNSLKPEDTAVYYCNAQSYYYWHLRYDYWGQGTQVTVSS	high polyreactivity
QVQLVESCGGLVQAGGSLRLSCAASGLTFLAYDMGWYRQAPGKEREFVAAITGGGSTHYADSVKGRFTISRDNAKTTVYLQMNSLKTEDTAVYYCNADVYVYSVTSHYPSYRLDYWGQGTQVTVSS	high polyreactivity
QVQHVESGGGLVQAGGSLRLSCAASGFIFVRNTMGWYRQAPGKERELVATITRRGGSTSYADSVKGRFTISRDNAKNTVYLQMNSLKPEDTAVYFCNARSVYGSKQEEYWGQGTQVTVSS	high polyreactivity
QVQLVESGGGLVQAGGSLRLSCAASGGTFPYYAMGWYRQAPGKERELVADISGTDGSTYYADSVKGRFTISRDNAKTTVYLQMNSLKPEDTAVYYCNADPHWWYWDYDYWGQGTQVTVSS	high polyreactivity
QVQLVESWGGLVQAGCSLRLSCAASGRTFRSYAMGWYRQATGKERELVAAISRNGGRTYYADSVKGRFTMSRDNAKYTVYSQMNSLKPEDTAVYYCAAVGDFDVYYWGQATQVTVSS	high polyreactivity

---

# method: yeast display, Sf9 membrane polyspecificity reagent, FACS + sequencing; frameworks hold sequencing errors

seq	polyreactivity (PSR sort gate)
QVQLVESGGGLVQAGGSLRLSCAASGSIFYSYAMGWDRQAPGKERELVAAISRIGGTTYYADSVKGRFTISRDNAKNTVYLQMNSLKPEDTAVYYCAAGPLLPRYSQYGYWGQGTQVTVSS	low polyreactivity
QVQLVESGGGLVKAGGSLRLSSAASGRTFFRNAMGWYRQEPGKERELVAVISDNGGTNYADSVKGRFTMSRDNAKNTVYLQLNSLKPEDTAVDYCATPKRRRYPYYYWGLGTQVTVSS	high polyreactivity
QVQLVESGGGLVQAGGSLRLSCAASGSTFAYYAMGWYRQAPGKEREWVAGISGSGGSTYYADSVKGRFTISRDYAKNTVYLHMNSLKPEDTAVYYCAVVQRSKRTYPWYDYWGQGSQVTVSS	low polyreactivity
QVQLVESGGGLDQAGGSLRLICAASGRIFVYYTMVWYRQAPGKERELVAAITGSGGSTYYADSVKGRFTISRDNAKNTVYLQMNSLKPEDTAVYYCAVYDSYRSRTHRYPATFAYGSWGQGNQVTVSS	high polyreactivity
QVQLVESGGGLVQAGGSLRLSCAASGYILPHNAMGWSRQAPGKDGEMVAAITSSGGSTYYADSVKGRVTISRDNAKNTVYLQMNSLKPEDTAVYYCNTDQYSPYEYSSFDSWGQGTQVTVSS	low polyreactivity
QVQLVESGGGLVQAGGSLRLSCAASGRIFGRNTMGWYRQAPGKERELVAAISYSAGSTYYADSVKGRFTISRDNAKNTVYLQMNSLKPEDTAVYYCAAGYIRTTYRTNRYGYWGQGTQVTVSS	high polyreactivity
QVHLVESGGGLVQAGGSLRLSCAASGSILAGYAMGWYRQAPGKEWELVAAISSGGRTYYADSVKGRFTISRDNAKNTVYLQMNSLKPEDTAVYYSAAGKYDGSRRMYYWGQGTQVTVSS	high polyreactivity

---

# method: yeast display, Sf9 membrane polyspecificity reagent, FACS + sequencing; frameworks hold sequencing errors
assay endpoint: polyreactivity (PSR sort gate)

>>> print(df.to_string())
                                        seq                  assay_endpoint       observed_value
0  QVQLVESGGGLVQAGGSLRLSCAASGRIFSRYAMGWYRQAPGKERELVATISSGGGTYYADSVKGRFTISRDNAKNTVYLQMNSLKPEDTAVYYCAAASYSGHGRYDDWGQGTQVPVSS  polyreactivity (PSR sort gate)  high polyreactivity
1  QVQLVESGGGLVQAGGSLRLSCAASGSIFVTYDLGWYRQAAGKERELVAGISGSGSTNYADSVKGRFTISRDNAKNTVYLQMNSLKPEDTAVYYCNTDGLWSAEYDYWGQGTQVTVSS  polyreactivity (PSR sort gate)   low polyreactivity
2  QVQLVESGGGLVQAGGSLRLSCAASGSTFPYNAMGCDRQAAGKERELVAAISFSGGITTYADSVKGRFTISRDNAKNTVYLQMNSLKPEDTAVYYCNVAYTLHFGYWGQGTQVTVSS  polyreactivity (PSR sort gate)   low polyreactivity
3  QVQLVESGGGLVQAGGSLRLSCAASGSIFRHNAMGWYRQAPGKERELVAAISRRASSTYYADSVKGRFTISRDNAKNTVYVQMNSLKPEDTAVYYCAVVPSSTYHAYDYWGQGTQVTVSS  polyreactivity (PSR sort gate)  high polyreactivity

---

# method: yeast display, Sf9 membrane polyspecificity reagent, FACS + sequencing; frameworks hold sequencing errors
assay endpoint: polyreactivity (PSR sort gate)

seq	assay endpoint	observed value
QVQIVESGGGLVQAGGSLRLSCASSGIIFWPNAMGWYRQAPGKERELVASITSGGYTYYADYVKGRFTISRDNAKNTVYLQMNSLKPEDTAVYYCAAEWYPYGPKRYYWGQGTQVTVSS	polyreactivity (PSR sort gate)	low polyreactivity
QVQLVESGGGLVQAGGSLRLSCAASGSTFLWYAMGWYTQAPGKERELVATISGSGGSTYYADSVKGRFTISRDNAKNTVYLQMNSLKPEDTAGYYCAAGTLVQRSRWVTFSAYDGDYWGQGTQVTVSS	polyreactivity (PSR sort gate)	high polyreactivity
QVQLVESGGGLVQAGGSLRLSCAASGRTFLRYAMGWYRQAPGKERELVAAITYGGRTNYADSVKGRFTISRDNAKNTVYLQMNSLKPEDTAVYYCAADRTYYYGLRVDYWGQGTQVTVSS	polyreactivity (PSR sort gate)	high polyreactivity
QVQLVESGGGLVQAGGSLRLSCAASGRIFAYYAMGWYRQAPGKERELVAAITSDGSSTYYADSVKGRFTISRDNAKNTVYLQMNSLKPEDTAVDYCAAGTYPFWDWIFDLWVDYWGQGTQVTVSS	polyreactivity (PSR sort gate)	high polyreactivity
QVQLVESGGGLVQAGGSLRLSCAASGSTFWDYAMGWYRPAPGKERELVAAISTSGGSTYYADSVKGRFTISRDNAKNTVYLQMNSLKPEDPAVYYFAAGRVRRRVWYNYWGQGTQVTVSS	polyreactivity (PSR sort gate)	high polyreactivity
QVQLVESGGGLVQAGGSLRLSCAASGLIFRYYAMGWYRQAPGKERELVAAIRRGGSTYYADSVKGRFTISRDNAKNTVYLQMNSLKPEDTAVYYCAADSYYWRYEYDYWGQGTQVTVSS	polyreactivity (PSR sort gate)	high polyreactivity
QVQLVESGGGLVQAGGSLRLSCAASGIQVYNAMGWYRQAPGKERELVAAISARGGRTYYADSVKGRFTISRDNAKNTVYLQMNSLKPEDTAVYYCATLETTGVNYWGQGTLVTVSS	polyreactivity (PSR sort gate)	high polyreactivity
QVQLVESGVGLVQAGGSLRLSCAASGRICVKYAMGWYRQAPGKERELVAAISASGGGTYYADSVKGRFTISRDNAKNTVYLQMNSLKPEDTAVYYCNADFRYPGQVPSYVTYDYWGQGTQVTVSS	polyreactivity (PSR sort gate)	low polyreactivity
